aptazyme ON/OFF ratio listing for selected variants.
B1: Pistol ribozyme (parent)
chain: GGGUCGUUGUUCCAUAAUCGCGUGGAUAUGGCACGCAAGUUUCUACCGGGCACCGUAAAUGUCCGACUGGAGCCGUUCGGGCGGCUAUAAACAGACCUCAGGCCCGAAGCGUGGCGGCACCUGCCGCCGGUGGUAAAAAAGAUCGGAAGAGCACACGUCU

# Variants of: B1
# PROCEDURE_SUMMARY: aptazyme ON/OFF ratio, guanine; higher = stronger switching; co-transcriptional cleavage with and without guanine
Kindly provide the number alone.

Record excerpt, results attached:
INSERT INTO assay_data (variant_designation, metric_name, assay_value) VALUES
  ('U7G G9U U10G U11A C12U C13G', 'aptazyme ON/OFF ratio', 1.17),
  ('U7C G9A U10A U11A C13G', 'aptazyme ON/OFF ratio', 1.04),
  ('U7A U8C G9U U10A U11A C12A C13G', 'aptazyme ON/OFF ratio', 1.22),
  ('U7A G9C U10A C12G C13A', 'aptazyme ON/OFF ratio', 1.13),
  ('U7A U8A G9C U10A U11A', 'aptazyme ON/OFF ratio', 1.21),
  ('U7G U8G G9U U11G C12U C13A', 'aptazyme ON/OFF ratio', 1.07);

Which value of aptazyme ON/OFF ratio has been reported for U7G U8C U10G U11A C12G C13G in the records?
1.21

Could you share which aptazyme ON/OFF ratio value was measured for U7A U8C G9A U10A U11C C12A C13G ?
1.18

// returns reported aptazyme ON/OFF ratio for input U8C G9A U11A C12G C13U
1.23

Fill blank: measured aptazyme ON/OFF ratio of the variant U7C U8G G9A U10A U11C C12U C13G is ____.
1.08

Field request: aptazyme ON/OFF ratio | item: U7G G9C U10G
1.89

aptazyme ON/OFF ratio lookup needed for U7A U8C U11C C12A C13G , thanks.
1.31

Entry U8C G9A U10C C12G C13G : reported aptazyme ON/OFF ratio = ?
1.4

Return reported aptazyme ON/OFF ratio; argument: U8A G9C C12U
1.3

Return reported aptazyme ON/OFF ratio; argument: U7C U8G G9C U10A U11C C12U C13U
1.09

Quick check: aptazyme ON/OFF ratio of U7G U8G G9U U11A C13U ?
1.38

The origin of these recorded values is the RNAGym collection of RNA variant scans (doi:10.1021/acssynbio.7b00057).
